These data points were gathered from patent US11529361B2.

In this section we review reported MIC values for a set of compounds.
# Tested on: 24 clinical isolate strains of C. difficile
# ASSAY: Additional MIC determinations, antibacterial activity by OD600 (Example 3)
# Type: cell-based, Clostridium difficile
# PARTICULARS: strain 7-7154992 (ST139)
Use mg/L as the unit, but write only the number.

COMPOUND: O=C(Nc1ccc(Br)cc1)c1cc(Br)cc(Br)c1O [Tribromsalan, 3,4′,5-tribromosalicylanilide]
UNIT_OF_MEASUREMENT: mg/L
MIC: 0.063

Query: Which MIC is reported for this compound? O=C(Nc1ccc(Oc2ccc(Cl)cc2)c(Cl)c1)c1cc(I)cc(I)c1O [Rafoxanide]
Reply: 0.016

Query: Also, Cc1cc(C(C#N)c2ccc(Cl)cc2)c(Cl)cc1NC(=O)c1cc(I)cc(I)c1O (stereo not shown) please.
Reply: 0.063

Query: Also, `Cc1ncc([N+](=O)[O-])n1CCO` please.
Reply: 1
